# System: HL-60
# method_summary: HL-60 differentiation potency
# Assay type: cell-based
# details: Homo sapiens
readout_name: EC50 (nM)

[[record]]
compound = "COc1cc(CO[C@H]2O[C@@H]3O[C@@]4(C)CC[C@H]5[C@H](C)CC[C@@H]([C@H]2C)[C@@]35OO4)ccc1C(=O)O"
target = "HL-60"
relation_operator = "="
observed_value = 481

[[record]]
compound = "C[C@H]1[C@@H](Nc2cccc(F)c2)O[C@@H]2O[C@@]3(C)CC[C@H]4[C@H](C)CC[C@@H]1[C@@]24OO3"
target = "HL-60"
relation_operator = "="
observed_value = 8190

[[record]]
compound = "C[C@H]1[C@@H](OCC(=O)N[C@H]2CC[C@@H](C(=O)O)C2)O[C@@H]2O[C@@]3(C)CC[C@H]4[C@H](C)CC[C@@H]1[C@@]24OO3"
target = "HL-60"
relation_operator = "="
observed_value = 8480

[[record]]
compound = "C[C@H]1[C@@H](OCC(=O)N2CC[C@@H](C(=O)O)C2)O[C@@H]2O[C@@]3(C)CC[C@H]4[C@H](C)CC[C@@H]1[C@@]24OO3"
target = "HL-60"
relation_operator = ">"
observed_value = 20000

[[record]]
compound = "C[C@H]1[C@@H](OC[C@H]2CC[C@@H](C(=O)NC3CC3)CC2)O[C@@H]2O[C@@]3(C)CC[C@H]4[C@H](C)CC[C@@H]1[C@@]24OO3"
target = "HL-60"
relation_operator = "="
observed_value = 72.6

[[record]]
compound = "C[C@H]1[C@@H](OC(=O)Cn2ccc(C(F)(F)F)n2)O[C@@H]2O[C@@]3(C)CC[C@H]4[C@H](C)CC[C@@H]1[C@@]24OO3"
target = "HL-60"
relation_operator = "="
observed_value = 73.2

[[record]]
compound = "C[C@H]1[C@H](NCCC(N)=O)O[C@@H]2O[C@@]3(C)CC[C@H]4[C@H](C)CC[C@@H]1[C@@]24OO3"
target = "HL-60"
relation_operator = "="
observed_value = 1700

[[record]]
compound = "C[C@H]1[C@@H](O[C@H]2CC[C@@H](CC(=O)O)C2)O[C@@H]2O[C@@]3(C)CC[C@H]4[C@H](C)CC[C@@H]1[C@@]24OO3"
target = "HL-60"
relation_operator = "="
observed_value = 241

[[record]]
compound = "C[C@H]1[C@H](N2CC(S(C)(=O)=O)C2)O[C@@H]2O[C@@]3(C)CC[C@H]4[C@H](C)CC[C@@H]1[C@@]24OO3"
target = "HL-60"
relation_operator = "="
observed_value = 42.8

[[record]]
compound = "C[C@H]1[C@@H](OC[C@H]2CC[C@H](C(=O)O)CC2)O[C@@H]2O[C@@]3(C)CC[C@H]4[C@H](C)CC[C@@H]1[C@@]24OO3"
target = "HL-60"
relation_operator = "="
observed_value = 892

[[record]]
compound = "C[C@H]1[C@@H](Oc2ccc(C(=O)O)c(F)c2)O[C@H]2O[C@@]3(C)CC[C@H]4[C@H](C)CC[C@@H]1[C@@]24OO3"
target = "HL-60"
relation_operator = "="
observed_value = 217

[[record]]
compound = "C[C@H]1[C@@H](OCC(=O)N2C[C@@H](O)C[C@H]2C(=O)O)O[C@@H]2O[C@@]3(C)CC[C@H]4[C@H](C)CC[C@@H]1[C@@]24OO3"
target = "HL-60"
relation_operator = ">"
observed_value = 20000

[[record]]
compound = "C[C@H]1[C@H](NCCCS(C)(=O)=O)O[C@@H]2O[C@@]3(C)CC[C@H]4[C@H](C)CC[C@@H]1[C@@]24OO3"
target = "HL-60"
relation_operator = "="
observed_value = 498

[[record]]
compound = "C[C@H]1[C@@H](OCc2cccc(CC(=O)O)c2)O[C@@H]2O[C@@]3(C)CC[C@H]4[C@H](C)CC[C@@H]1[C@@]24OO3"
target = "HL-60"
relation_operator = "="
observed_value = 480

[[record]]
compound = "CCN(CC)Cc1ccc(C(C)O[C@@H]2O[C@@H]3O[C@@]4(C)CC[C@H]5[C@H](C)CC[C@@H]([C@H]2C)[C@@]35OO4)cc1O (stereo partly shown)"
target = "HL-60"
relation_operator = "="
observed_value = 1710

[[record]]
compound = "C[C@H]1[C@@H](CCN2CCC(C(=O)O)CC2)O[C@@H]2O[C@@]3(C)CC[C@H]4[C@H](C)CC[C@@H]1[C@@]24OO3"
target = "HL-60"
relation_operator = ">"
observed_value = 20000

